Reference source: patent EP4768499A1

Experiment: Metabolic stability test: liver microsomal stability assay
Type: in vitro ADME, mouse
Settings: male, pH 7.4; mouse liver microsomes 0.5 mg protein/mL, compound 1 µM, presence of NADPH; read-out: Mouse Hepatic Microsome CLh,int NADPH(+)
Starred links: 1 amine or outer side, 2 acyl side, 3 side chain; linkers in the order of their positions; H or OH if unused. Positions of bridges follow the written chain, without caps; N, C: chain ends. Non-standard residues stand in square brackets, D forms with d. Residues, ends and D or L forms follow the SMILES beside them. *: point of attachment. NMedβ3hAla = C[C@H](CC(=O)[*:2])N(C)[*:1]; NMeF = CN[C@@H](Cc1ccccc1)C(=O)O; NMeGABA = CN(CCCC(=O)[*:2])[*:1]; NMeI = CC[C@H](C)[C@H](NC)C(=O)O; NMeT = CN[C@H](C(=O)O)[C@@H](C)O; hPhe = N[C@@H](CCc1ccccc1)C(=O)O; NMeβAla = CN(CCC(=O)[*:2])[*:1]; NMeD = CN[C@@H](CC(=O)O)C(=O)O; NMeL = CN[C@@H](CC(C)C)C(=O)O; NMeV = CN[C@H](C(=O)O)C(C)C; d(β3hA) = C[C@@H](N)CC(=O)O; NMeAbu = CC[C@H](NC)C(=O)O; NMeA = CN[C@@H](C)C(=O)O; Piperidide = C1CCN(*)CC1; Abu = CC[C@H](N)C(=O)O; Sar = CNCC(=O)O; tBu = CC(C)(C)*
As shown below, each of these molecules has a reported microsomal CLint at 1 µM value.
Provide the reading as a plain figure in µL/min/mg.

Examples from the recorded data:
CC[C@H](C)[C@@H]1NC(=O)[C@H](C)N(C)C(=O)[C@H]([C@@H](C)O)NC(=O)[C@H](CC(C)C)N(C)C(=O)[C@H](CC)N(C)C(=O)[C@H](Cc2ccccc2)N(C)C(=O)[C@H](C)NC(=O)[C@H](Cc2ccccc2)N(C)C(=O)[C@H](C)N(C)C(=O)[C@H](CC(C)C)N(C)C(=O)[C@H](CC(C)C)NC(=O)CCCN(C)C(=O)C[C@@H](C(=O)N2CCCCC2)NC(=O)[C@H](CC(C)C)N(C)C1=O [pd041] ([NMeGABA]L[NMeL][NMeA][NMeF]A[NMeF][NMeAbu][NMeL]T[NMeA]I[NMeL]D-Piperidide; lactam N-14) :: 25.1
CC[C@H](C)[C@@H]1NC(=O)[C@H](C)N(C)C(=O)[C@H]([C@@H](C)O)NC(=O)[C@H](Cc2ccccc2)N(C)C(=O)[C@H](COC(C)(C)C)NC(=O)[C@H](CC(C)C)N(C)C(=O)[C@H](CCc2ccccc2)NC(=O)[C@@H]2CCCN2C(=O)[C@H]([C@@H](C)CC)NC(=O)[C@H](CC(C)C)N(C)C(=O)CCCN(C)C(=O)C[C@@H](C(=O)N2CCCCC2)NC(=O)[C@H](CC(C)C)N(C)C1=O [pd102] ([NMeGABA][NMeL]IP[hPhe][NMeL]S(tBu)[NMeF]T[NMeA]I[NMeL]D-Piperidide; lactam N-13) :: 32.9
CC[C@H](C)[C@@H]1NC(=O)[C@H](Cc2ccccc2)N(C)C(=O)[C@H](CC(C)C)N(C)C(=O)[C@H](CC(C)C)NC(=O)[C@H](C)N(C)C(=O)C[C@@H](C(=O)N2CCCCC2)N(C)C(=O)[C@H](C)N(C)C(=O)[C@H](CC(C)C)NC(=O)[C@H](CC(C)C)N(C)C(=O)CNC(=O)[C@H]([C@@H](C)CC)N(C)C(=O)[C@H](Cc2ccccc2)N(C)C(=O)[C@H](C)NC1=O [pd152] ([NMeA]L[NMeL][NMeF]IA[NMeF][NMeI]G[NMeL]L[NMeA][NMeD]-Piperidide; lactam N-13) :: 40.2
CC[C@H](C)[C@H]1C(=O)N2CCC[C@H]2C(=O)N(C)[C@@H](C(C)C)C(=O)N(C)[C@@H](Cc2ccccc2)C(=O)N(C)[C@@H](C)C(=O)N(C)[C@@H](CC(C)C)C(=O)N[C@@H]([C@@H](C)O)C(=O)N(C)[C@@H](C)C(=O)N[C@@H](CCc2ccccc2)C(=O)N(C)[C@@H](CC(C)C)C(=O)N[C@H](C(=O)N2CCCCC2)CC(=O)N(C)CCCC(=O)N(C)[C@@H](CC(C)C)C(=O)N1C [pd124] ([NMeGABA][NMeL][NMeI]P[NMeV][NMeF][NMeA][NMeL]T[NMeA][hPhe][NMeL]D-Piperidide; lactam N-13) :: 16.9
CC[C@@H]1NC(=O)[C@H]([C@@H](C)O)NC(=O)[C@H](Cc2ccccc2)N(C)C(=O)[C@H](CC(C)C)N(C)C(=O)[C@H](C(C)C)NC(=O)[C@H]([C@@H](C)CC)N(C)C(=O)[C@H]([C@@H](C)CC)NC(=O)[C@H](CC(C)C)N(C)C(=O)[C@H](C)N(C)C(=O)[C@H](C)NC(=O)C[C@@H](C)N(C)C(=O)[C@H](CC(C)C)N(C)C(=O)[C@H](C)N(C)C(=O)CN(C)C1=O [pd069] (cyclo(A[NMeA][NMeL]I[NMeI]V[NMeL][NMeF]T[Abu][Sar][NMeA][NMeL][NMedβ3hAla])) :: 16.5
CC[C@@H]1NC(=O)[C@H](Cc2ccccc2)N(C)C(=O)[C@H](C(C)C)NC(=O)[C@H](COC(C)(C)C)NC(=O)[C@H](C)N(C)C(=O)CN(C)C(=O)[C@H](CC(C)C)NC(=O)[C@@H]2CCCN2C(=O)[C@H](C(C)C)N(C)C(=O)[C@H](C)NC(=O)[C@H](CC)N(C)C(=O)[C@@H](C(C)C)NC(=O)C[C@@H](C(=O)N2CCCCC2)NC(=O)[C@H](C(C)C)N(C)C1=O [pd013] ([dV][NMeAbu]A[NMeV]PL[Sar][NMeA]S(tBu)V[NMeF][Abu][NMeV]D-Piperidide; lactam N-14) :: 12.1
CC[C@H](C)[C@@H]1NC(=O)[C@H](CC(C)C)N(C)C(=O)[C@H](C)N(C)C(=O)[C@H](Cc2ccccc2)N(C)C(=O)[C@@H]2CCCN2C(=O)[C@H](CC(C)C)N(C)C(=O)[C@H](CCc2ccccc2)NC(=O)CCN(C)C(=O)C[C@@H](C)NC(=O)[C@H](CC(C)C)N(C)C(=O)[C@H]([C@@H](C)O)NC(=O)CCN(C)C(=O)[C@H](C(C)C)N(C)C1=O [pd138] (cyclo(I[NMeV][NMeβAla]T[NMeL][d(β3hA)][NMeβAla][hPhe][NMeL]P[NMeF][NMeA][NMeL])) :: 39.3

In the following, a different molecule is considered.
Provide measured microsomal CLint at 1 µM value, entry: CC[C@@H]1NC(=O)[C@H](Cc2ccccc2)N(C)C(=O)[C@H](CC(C)C)NC(=O)CNC(=O)[C@H]([C@@H](C)O)N(C)C(=O)[C@H](CC(C)C)N(C)C(=O)[C@H]([C@@H](C)CC)NC(=O)[C@H](Cc2ccccc2)N(C)C(=O)CN(C)C(=O)C[C@@H](C(=O)N2CCCCC2)NC(=O)[C@H](C(C)C)N(C)C(=O)[C@H](CC(C)C)NC(=O)[C@H](C(C)C)NC(=O)[C@H](C)N(C)C1=O [pd030] ([Sar][NMeF]I[NMeL][NMeT]GL[NMeF][Abu][NMeA]VL[NMeV]D-Piperidide; lactam N-14)
33.7
